The following compounds are shown together with reported IC50 values.
Target: human PDE9A2 (Homo sapiens, UniProt O76083)
Construct: made in house; host or cells: Sf9 insect cells (infected); crude lysate used as enzyme source
Sequence (O76083 1-533 isoform O76083-2): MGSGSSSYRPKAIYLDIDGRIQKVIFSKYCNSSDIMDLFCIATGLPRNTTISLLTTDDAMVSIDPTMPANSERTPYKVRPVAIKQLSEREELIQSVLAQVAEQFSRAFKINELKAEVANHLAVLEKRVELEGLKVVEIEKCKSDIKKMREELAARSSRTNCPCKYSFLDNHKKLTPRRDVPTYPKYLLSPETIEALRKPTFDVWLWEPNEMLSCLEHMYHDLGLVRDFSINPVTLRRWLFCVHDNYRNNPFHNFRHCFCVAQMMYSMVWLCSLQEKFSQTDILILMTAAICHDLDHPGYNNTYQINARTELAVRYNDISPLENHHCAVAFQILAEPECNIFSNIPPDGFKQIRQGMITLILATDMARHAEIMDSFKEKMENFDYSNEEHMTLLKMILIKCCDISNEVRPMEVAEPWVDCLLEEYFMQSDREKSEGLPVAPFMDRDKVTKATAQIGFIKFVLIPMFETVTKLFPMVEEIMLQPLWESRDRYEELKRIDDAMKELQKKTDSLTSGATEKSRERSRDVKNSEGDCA
Test: PDE9A2 enzymatic activity assay (scintillation proximity assay, SPA)
Assay type: biochemical
Details: reported only as range 1-100 or 101-1200 nanomolar; specific value lies within range; read-out: IC50 within range [nanomolar (nM)]

Some compounds with known IC50 results, for comparison:
- Compound: "CCC(C)Cc1nc2c(cnn2C2CCOCC2)c(=O)[nH]1 (racemic) [Example 135]"
  System Under Test: "human PDE9A2 (Homo sapiens, UniProt O76083)"
  Property Label: "IC50"
  Result: "1 to 100 nM"
- Compound: "CC(C)CCc1nc2c(cnn2C2CCOCC2)c(=O)[nH]1 [Example 3]"
  System Under Test: "human PDE9A2 (Homo sapiens, UniProt O76083)"
  Property Label: "IC50"
  Result: "1 to 100 nM"
- Compound: "O=c1[nH]c(CC2CC2)nc2c1cnn2C1CCSCC1 [Example 40-5]"
  System Under Test: "human PDE9A2 (Homo sapiens, UniProt O76083)"
  Property Label: "IC50"
  Result: "1 to 100 nM"
- Compound: "O=c1[nH]c(CC2CCC2)nc2c1cnn2C1CCNC1 (racemic) [Example 201]"
  System Under Test: "human PDE9A2 (Homo sapiens, UniProt O76083)"
  Property Label: "IC50"
  Result: "101 to 1200 nM"
- Compound: "CC(=O)N1CCC(n2ncc3c(=O)[nH]c(CC4CCCC4)nc32)C1 (racemic) [Example 165]"
  System Under Test: "human PDE9A2 (Homo sapiens, UniProt O76083)"
  Property Label: "IC50"
  Result: "101 to 1200 nM"

Given the compound O=c1[nH]c(Cc2cc(C(F)(F)F)ccn2)nc2c1cnn2C1CCOCC1 [Example 65] , what is its reported IC50?
1 to 100 nM

Can you check Cc1cccnc1Cc1nc2c(cnn2C2CCOC2)c(=O)[nH]1 (racemic) [Example 87] next?
101 to 1200 nM

Can you check COc1ccc(Cc2nc3c(cnn3C3CCOCC3)c(=O)[nH]2)c(Cl)c1 [Example 40-2] next?
1 to 100 nM

Can you check CC1CC(n2ncc3c(=O)[nH]c(Cc4ccccc4C#N)nc32)CCO1 (racemic) [Example 121] next?
101 to 1200 nM

* * *

The following molecules are shown together with reported IC50 values.
Molecular target: human PDE9A2 (Homo sapiens)
Construct: made in house; host or cells: Sf9 insect cells (infected); crude lysate used as enzyme source
Assay: PDE9A2 enzymatic activity assay (scintillation proximity assay, SPA)
Type: biochemical
Details: reported only as range 1-100 or 101-1200 nanomolar; specific value lies within range; read-out: IC50 within range [nanomolar (nM)]

- Molecule: "O=c1[nH]c(CC2CC2)nc2c1cnn2C1CCCCO1 (racemic)"
  System Under Test: "human PDE9A2 (Homo sapiens)"
  Property Label: "IC50"
  Result: "101 to 1200 nM"
- Molecule: "CC(Cc1nc2c(cnn2C2CCOCC2)c(=O)[nH]1)C(F)(F)F (racemic) [Example 46]"
  System Under Test: "human PDE9A2 (Homo sapiens)"
  Property Label: "IC50"
  Result: "1 to 100 nM"
- Molecule: "O=c1[nH]c(CC2CCC2)nc2c1cnn2C1CCCN(CC(F)(F)F)C1 (racemic)"
  System Under Test: "human PDE9A2 (Homo sapiens)"
  Property Label: "IC50"
  Result: "101 to 1200 nM"
- Molecule: "CN1CCC(n2ncc3c(=O)[nH]c(CC4CCCC4)nc32)CC1"
  System Under Test: "human PDE9A2 (Homo sapiens)"
  Property Label: "IC50"
  Result: "101 to 1200 nM"
- Molecule: "CC(=O)N1CCC(Oc2ccccc2Cc2nc3c(cnn3C3CCOCC3)c(=O)[nH]2)CC1"
  System Under Test: "human PDE9A2 (Homo sapiens)"
  Property Label: "IC50"
  Result: "1 to 100 nM"
- Molecule: "O=C(c1ccccc1)N1CCCC(n2ncc3c(=O)[nH]c(CC4CCC4)nc32)C1 (racemic)"
  System Under Test: "human PDE9A2 (Homo sapiens)"
  Property Label: "IC50"
  Result: "1 to 100 nM"
- Molecule: "CCc1cc(OC)ccc1Cc1nc2c(cnn2C2CCOCC2)c(=O)[nH]1"
  System Under Test: "human PDE9A2 (Homo sapiens)"
  Property Label: "IC50"
  Result: "101 to 1200 nM"
- Molecule: "O=c1[nH]c(CC2CCCC2)nc2c1cnn2C1CCCN(CC(F)F)C1 (racemic)"
  System Under Test: "human PDE9A2 (Homo sapiens)"
  Property Label: "IC50"
  Result: "101 to 1200 nM"

Given the molecule O=c1[nH]c(CC2CCCCCC2)nc2c1cnn2C1CCOCC1 , what is its reported IC50?
1 to 100 nM

Can you check CC(C)(C)OC(=O)N1CCCC(n2ncc3c(=O)[nH]c(Cc4ccccc4F)nc32)C1 (racemic) next?
1 to 100 nM

Can you check COc1ccc(C2CCCCC2Cc2nc3c(cnn3C3CCOCC3)c(=O)[nH]2)cn1 (racemic) next?
101 to 1200 nM
